assay: Measure of AUCpo/AUCiv x 100% of the parent compound before (free) and after (total) beta-glucuronidase treatment; total 76%; format: ADME, organism-based; settings: in vivo, po; read-out: Bioavailabiility
experimental-readout: bioavailability (%)

INSERT INTO assay_data (compound, experimental_result) VALUES
  ('Oc1cc2c(cc1Cc1ccccc1)OC(CCc1ccccc1)C2 (stereo unspecified)', 44);

====

assay: Measure of AUCpo/AUCiv x 100% of the parent compound before (free) and after (total) beta-glucuronidase treatment; total 10%; format: ADME, organism-based; details: in vivo, po; read-out: Bioavailabiility
experimental-readout: bioavailability (%)

INSERT INTO results (compound, experimental_readout, experimental_result) VALUES
  ('Oc1cc2c(cc1CCCSc1ccncc1)OC(CCc1ccccc1)C2 (stereo unspecified)', 'bioavailability', 11);

====

assay: Measure of AUCpo/AUCiv x 100% of the parent compound before (free) and after (total) beta-glucuronidase treatment; total 54%; format: ADME, organism-based; conditions: in vivo, po; read-out: Bioavailabiility
experimental-readout: bioavailability (%)

INSERT INTO measurements (compound, units_of_measure, experimental_result) VALUES
  ('Oc1cc2c(cc1CCCOc1ccccc1)OC(CCc1ccccc1)C2 (stereo unspecified)', '%', 5);

====

test: Peak concentration of drug in rat plasma after oral dosing at 20 mg/kg. Concentration of parent compound was measured before (free) and after (total) beta-glucuronidase treatment; total 3.1 uM; type: ADME, organism-based; parameters: dose 20 mg/kg, route oral; conditions: read-out: Plasma level
experimental-readout: Cmax (nM)

INSERT INTO measurements (molecule, experimental_readout, units_of_measure, experimental_result) VALUES
  ('Oc1cc2c(cc1CCCOc1ccccc1)OC(CCc1ccc(Cl)cc1)C2 (stereo unspecified)', 'Cmax', 'nM', 300);

====

test: Peak concentration of drug in rat plasma after oral dosing at 20 mg/kg. Concentration of parent compound was measured before (free) and after (total) beta-glucuronidase treatment; total 3.0 uM; format: ADME, organism-based; design: dose 20 mg/kg, route oral; conditions: read-out: Plasma level
experimental-readout: Cmax (nM)

INSERT INTO measurements (compound, experimental_readout, experimental_result) VALUES
  ('Oc1cc2c(cc1CCCSc1ccncc1)OC(CCc1ccccc1)C2 (stereo unspecified)', 'Cmax', 1000);

====

Recorded measurements of inhibition in vivo at 0.05 mg/kg, one per entry
test system: Rattus norvegicus; assay: Percentage inhibition against antigen induced dyspnea in hyperactive inbred rat at a dose of 0.05 mg/kg; format: functional
experimental-readout: inhibition in vivo at 0.05 mg/kg (%)

INSERT INTO measurements (compound, units_of_measure, experimental_result) VALUES
  ('Oc1cc2c(cc1CCCOc1ccccc1)OC(CCc1ccc(Cl)cc1)C2 (stereo not given)', '%', 56),
  ('Oc1cc2c(cc1Cc1ccccc1)OC(CCc1ccccc1)C2 (stereo not given)', '%', 44),
  ('CCCc1c(O)c(CCCOc2ccc(C3N=NN=N3)cc2)cc2c1CC(CCc1ccccc1)O2 (stereo not given)', '%', 52),
  ('Oc1cc2c(cc1CCCOc1ccccc1)OC(CCc1ccccc1)C2 (stereo not given)', '%', 50),
  ('COc1nc2c(SCCCc3cc4c(cc3O)CC(CCc3ccccc3)O4)cccc2cc1C(=O)O (stereo not given)', '%', 55);
